# credit: PubChem BioAssay

- System name: NADPH oxidase 5 (Homo sapiens) (UniProt Q96PH1)
- Sequence (Q96PH1 whole entry, looked up): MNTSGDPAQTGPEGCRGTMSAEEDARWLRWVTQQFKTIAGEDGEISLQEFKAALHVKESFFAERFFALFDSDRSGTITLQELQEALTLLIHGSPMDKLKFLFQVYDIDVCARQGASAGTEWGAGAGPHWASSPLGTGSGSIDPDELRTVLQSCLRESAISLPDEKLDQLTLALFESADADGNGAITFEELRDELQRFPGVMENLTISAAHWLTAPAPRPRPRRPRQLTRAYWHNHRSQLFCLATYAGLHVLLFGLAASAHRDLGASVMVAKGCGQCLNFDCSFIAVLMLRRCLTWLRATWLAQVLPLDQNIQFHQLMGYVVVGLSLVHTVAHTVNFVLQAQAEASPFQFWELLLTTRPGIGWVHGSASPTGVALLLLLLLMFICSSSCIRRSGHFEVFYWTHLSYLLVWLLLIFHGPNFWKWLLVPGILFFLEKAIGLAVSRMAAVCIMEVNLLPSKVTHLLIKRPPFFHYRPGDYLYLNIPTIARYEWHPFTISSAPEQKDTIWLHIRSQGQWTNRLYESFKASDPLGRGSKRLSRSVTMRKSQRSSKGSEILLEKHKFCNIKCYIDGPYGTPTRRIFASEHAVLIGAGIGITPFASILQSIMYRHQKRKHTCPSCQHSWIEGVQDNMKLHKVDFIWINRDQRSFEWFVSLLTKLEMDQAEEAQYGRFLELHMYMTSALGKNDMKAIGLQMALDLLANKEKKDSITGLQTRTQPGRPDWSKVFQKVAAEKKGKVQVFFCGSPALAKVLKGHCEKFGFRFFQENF
- Test summary: NOX5-dependent H2O2 signal modulators, primary screen, NOX inhibitor project, cell-based, HEK293-NOX5, Amplex Red fluorescence (AID 1161)
- Experimental context: HEK293-NOX5, ionomycin, 45 min, higher = more signal
Metric: z-score

Reference set (3 entries):
Compound	System name	z-score
C=CCC(OC(C)=O)[C@@H]1[C@@H](N(Cc2cc3ccccc3o2)C(=O)c2ccc(C)cc2)c2cc(OCCCO)ccc2N1C(=O)Cc1ccc2ccccc2c1 (some centres undefined)	NADPH oxidase 5 (Homo sapiens) (UniProt Q96PH1)	2.32
CC(C)C(CO)N1C(=O)[C@]2(C)C3C(=O)OCCC/C=C\[C@H]3OC23C=CCN(c2ccc(Cl)cc2)C(=O)[C@@H]13 (some centres undefined)	NADPH oxidase 5 (Homo sapiens) (UniProt Q96PH1)	1.69
CCOc1cc(C(O)C2C=CC3C(=O)N(C)C(=O)C3N2N2CCCCC2)ccc1O (centres undefined)	NADPH oxidase 5 (Homo sapiens) (UniProt Q96PH1)	-3.11

For the next question, use this compound.
INPUT: Provide NADPH oxidase 5 (Homo sapiens) (UniProt Q96PH1) z-score reading for "CCCC[C@@H]1C[C@H]1[C@@H](NC(=O)c1ccccc1)c1ccc(Cl)cc1" .
OUTPUT: 1.86

---

- System name: Torsin-1A (Homo sapiens) (UniProt O14656)
- Sequence (O14656 whole entry, looked up): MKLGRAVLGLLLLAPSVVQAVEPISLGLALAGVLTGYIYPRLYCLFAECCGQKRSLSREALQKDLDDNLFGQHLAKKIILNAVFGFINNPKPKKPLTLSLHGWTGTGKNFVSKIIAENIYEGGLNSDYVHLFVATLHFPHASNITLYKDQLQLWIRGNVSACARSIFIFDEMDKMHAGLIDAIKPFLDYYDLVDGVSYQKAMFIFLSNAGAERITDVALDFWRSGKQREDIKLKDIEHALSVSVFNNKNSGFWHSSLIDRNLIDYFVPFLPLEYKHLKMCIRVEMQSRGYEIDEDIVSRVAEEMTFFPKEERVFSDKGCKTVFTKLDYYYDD
- Test summary: torsin A binders from cell lysate, primary screen, small-molecule microarray, wild-type, 635/667 nm (AID 1149)
- Experimental context: COS7 hTOR1A-WT lysate, 635 nm fluorescence, higher = more signal
Record form. Attribute: composite z-score. Fill in for each entry.
Answers are plain numbers.

Reference set (4 entries):
Compound	System name	composite z-score
COc1ccc([Si](C)(C)[C@H]2[C@H](CCn3cc([C@H](O)c4ccccc4)nn3)O[C@@]3(C(=O)N(Cc4cccc(N5C(=O)c6cccc7cccc5c67)c4)c4ccccc43)[C@@H]2C)cc1	Torsin-1A (Homo sapiens) (UniProt O14656)	-0.601
Cc1ccc(F)cc1S(=O)(=O)N[C@@H]1CCN(Cc2ccc(OC(C)C)cc2)C1	Torsin-1A (Homo sapiens) (UniProt O14656)	0.277
CN1C(=O)C2C=CC(C(O)C3CCCCC3)N(N3CCCCC3)C2C1=O (stereo not drawn)	Torsin-1A (Homo sapiens) (UniProt O14656)	0.221
C=CCN1Cc2ccccc2C[C@@]2(N=C(c3ccc(OCCCO)cc3)O[C@H]2c2ccccc2)C1=O	Torsin-1A (Homo sapiens) (UniProt O14656)	0.233

Each of the following entries comes with a recorded value; kindly state composite z-score for each.
1. COc1ccc(CCNC(=O)[C@@]2(Sc3ccc(C)cc3)CC(=O)N(Cc3cc(C(F)(F)F)cc(C(F)(F)F)c3)[C@@H]2c2ccc(CO)cc2I)cc1
2. C=C(C(=O)CC[C@H](OC(=O)c1cccnc1)c1cccc(OCCO)c1)C(C)C
3. O=C(O)[C@H](Cc1ccccc1)n1cc(-c2ccccn2)nn1

OUTPUT:
0.579
1.17
0.307

INPUT: Provide Torsin-1A (Homo sapiens) (UniProt O14656) composite z-score reading for "COC(=O)[C@@]1(Cc2ccc(OC)cc2)[C@H]2c3cc(C(=O)N(C)C)n(Cc4ccccc4)c3C[C@H]2CN1C(=O)c1ccccc1" .
OUTPUT: -0.0982
